Hey, just so you know, these numbers are from patent US12258327B2.

- test_target: EGFR del19/C797S (Homo sapiens, UniProt P00533, C797S/DEL746-750)
- Sequence (P00533 with tags, fused parts or gaps DEL746-750/C797S): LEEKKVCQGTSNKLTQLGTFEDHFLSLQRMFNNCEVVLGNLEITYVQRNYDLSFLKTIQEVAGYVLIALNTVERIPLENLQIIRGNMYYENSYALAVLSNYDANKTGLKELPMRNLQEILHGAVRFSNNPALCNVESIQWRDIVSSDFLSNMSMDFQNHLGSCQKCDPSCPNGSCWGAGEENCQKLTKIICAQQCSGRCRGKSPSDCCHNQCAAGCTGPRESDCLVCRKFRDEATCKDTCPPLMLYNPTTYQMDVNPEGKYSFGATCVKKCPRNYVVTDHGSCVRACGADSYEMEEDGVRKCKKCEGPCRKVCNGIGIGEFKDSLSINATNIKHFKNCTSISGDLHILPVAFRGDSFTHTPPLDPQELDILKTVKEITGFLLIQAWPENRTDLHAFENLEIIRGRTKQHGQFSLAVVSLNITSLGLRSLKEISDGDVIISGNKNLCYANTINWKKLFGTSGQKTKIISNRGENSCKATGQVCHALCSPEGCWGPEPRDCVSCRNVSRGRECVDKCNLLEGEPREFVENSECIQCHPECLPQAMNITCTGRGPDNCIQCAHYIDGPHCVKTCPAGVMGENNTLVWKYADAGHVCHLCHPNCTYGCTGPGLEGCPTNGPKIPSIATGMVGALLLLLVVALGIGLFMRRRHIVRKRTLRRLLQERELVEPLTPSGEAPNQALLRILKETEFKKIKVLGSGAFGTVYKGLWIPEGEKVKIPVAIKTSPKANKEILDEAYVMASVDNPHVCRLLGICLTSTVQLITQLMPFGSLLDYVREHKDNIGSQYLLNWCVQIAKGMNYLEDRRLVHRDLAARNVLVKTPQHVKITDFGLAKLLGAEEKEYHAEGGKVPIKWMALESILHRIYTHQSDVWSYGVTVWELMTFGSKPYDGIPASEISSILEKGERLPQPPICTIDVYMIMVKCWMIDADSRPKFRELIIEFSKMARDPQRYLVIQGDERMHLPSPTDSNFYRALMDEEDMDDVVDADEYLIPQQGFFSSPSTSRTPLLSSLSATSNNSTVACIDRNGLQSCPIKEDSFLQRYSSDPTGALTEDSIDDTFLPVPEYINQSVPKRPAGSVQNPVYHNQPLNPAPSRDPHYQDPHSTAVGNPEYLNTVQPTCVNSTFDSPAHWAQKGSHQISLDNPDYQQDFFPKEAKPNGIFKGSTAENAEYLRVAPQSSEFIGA
- experimental_protocol: Biochemical EGFR kinase assay (Lance Ultra TR-FRET), double mutant del19/C797S
- test_context: Km ATP; read-out: IC50 del19/C797S (nM) Km ATP
// returns -1 unless IC50 is strictly below 10 nM, in which case 1

molecule	assigned_label
C[C@]1(O)CC[C@@H](Nc2cc(Nc3ccnc(-c4cnn(S(=O)(=O)C5CC5)c4)n3)ncc2-c2cc3n(n2)CCCC3)CC1 [Example 59]	1
O=S(=O)(C1CC1)n1cc(-c2nccc(Nc3cc(OC4CCC(OC(F)F)CC4)c(-c4cnn(C(F)F)c4)cn3)n2)cn1 (stereo not shown) [Example 70]	-1
Cn1ccc(-c2cnc(Nc3ccnc(-c4cnn(S(=O)(=O)C5CC5)c4)n3)cc2NC[C@H]2CC[C@@H](O)C2)n1 [Example 118]	1
O=S(=O)(C1CC1)n1cc(-c2nccc(Nc3cc(NC4CCCCC4O)c(-c4ccn(C(F)F)n4)cn3)n2)cn1 (stereo not shown) [Example 28]	-1
C=CCn1cc(-c2nccc(Nc3cc(N[C@H]4CC[C@@](C)(O)CC4)c(-c4ccn(C(F)F)n4)cn3)n2)cn1 [Example 116]	-1
CN(C)CC1(C)CCC(Nc2cc(Nc3ccnc(-c4cnn(S(=O)(=O)C5CC5)c4)n3)ncc2-c2ccn(CC(F)F)n2)CC1 (stereo not shown) [Example 246]	1
CN(C)C(=O)[C@H]1CC[C@@H](Nc2cc(Nc3ccnc(-c4cnn(S(=O)(=O)C5CC5)c4)n3)ncc2-c2cc(C(F)(F)F)n(C)n2)CC1 [Example 257]	1
O=S(=O)(C1CC1)n1cc(-c2nccc(Nc3cc(N[C@@H]4CCC[C@H](O)C4)c(-c4csc(C(F)(F)F)n4)cn3)n2)cn1 [Example 96]	-1
CCC(C)Nc1cc(Nc2ccnc(-c3cnn(S(=O)(=O)C4CC4)c3)n2)ncc1-c1ccn(C(F)F)n1 (stereo not shown) [Example 210]	-1
CS(=O)(=O)c1ccccc1Nc1nccc(Nc2cc(N[C@H]3CC[C@@](C)(O)CC3)c(-c3ccn(C(F)F)n3)cn2)n1 [Example 313]	-1
O=S(=O)(C1CC1)n1cc(-c2nccc(Nc3cc(NC4CCC(CCO)CC4)c(-c4ccn(C(F)F)n4)cn3)n2)cn1 (stereo not shown) [Example 133]	1
C[C@]1(O)CC[C@@H](Nc2cc(Nc3ccnc(-c4cnc5c(c4)NCCO5)n3)ncc2-c2ccn(C(F)F)n2)CC1 [Example 154]	-1
